Values compiled from patent US20070179154A1.

Parameter measured: melting point

Previously resolved entries follow.
# Test smiles, Parameter measured, Assay value
data = [
    ("CCOC(=O)/C=C/C=C/c1cccc(-c2c(CC(=O)Nc3ccc(F)cc3C(F)(F)F)c(=O)oc3cc(Cl)c(C)cc23)c1", "melting point", "216 to 218 °C"),
    ("Cc1cc2oc(=O)c(CC(=O)Nc3ccc(F)cc3C(F)(F)F)c(-c3cccc(CCC(=O)O)c3)c2cc1Cl", "melting point", "240 to 242 °C"),
    ("Cc1cc2oc(=O)c(CC(=O)Nc3ccc(F)cc3C(F)(F)F)c(-c3cccc(/C=C/C(=O)O)c3)c2cc1Cl", "melting point", "272 to 274 °C"),
]

Moving on to the next compound.
What value of measured melting point is listed for `Cc1cc2c(-c3cccc(C(=O)NC(C)C)c3)c(CC(=O)Nc3ccc(Cl)cc3C(F)(F)F)c(=O)oc2cc1Cl` ?
215 to 217 °C
